details: in water, 338.15 K
Metric name: solubility (mole fraction)
Respond with the number and no other words.

Which solubility (mole fraction) value is on record for CN/C(=C\[N+](=O)[O-])NCCSCc1csc(CN(C)C)n1 ?
0.109

###

details: in acetone, 318.15 K
Metric name: solubility (mole fraction)
Respond with the number and no other words.

Which solubility (mole fraction) value is on record for CN/C(=C\[N+](=O)[O-])NCCSCc1csc(CN(C)C)n1 ?
0.0235

###

details: in methanol, 283.15 K
Metric name: solubility (mole fraction)
Respond with the number and no other words.

Which solubility (mole fraction) value is on record for CN/C(=C\[N+](=O)[O-])NCCSCc1csc(CN(C)C)n1 ?
0.027

###

conditions: in water, 328.15 K
Metric name: solubility (mole fraction)
Respond with the number and no other words.

Which solubility (mole fraction) value is on record for CN/C(=C\[N+](=O)[O-])NCCSCc1csc(CN(C)C)n1 ?
0.0653

###

settings: in ethyl acetate, 313.15 K
Metric name: solubility (mole fraction)
Respond with the number and no other words.

Which solubility (mole fraction) value is on record for CN/C(=C\[N+](=O)[O-])NCCSCc1csc(CN(C)C)n1 ?
0.00187

###

details: in ethyl acetate, 283.15 K
Metric name: solubility (mole fraction)

Which solubility (mole fraction) value is on record for CN/C(=C\[N+](=O)[O-])NCCSCc1csc(CN(C)C)n1 ?
0.00043

###

details: in acetone, 313.15 K
Metric name: solubility (mole fraction)
Respond with the number and no other words.

Which solubility (mole fraction) value is on record for CN/C(=C\[N+](=O)[O-])NCCSCc1csc(CN(C)C)n1 ?
0.0164

###

details: in water, 293.15 K
Metric name: solubility (mole fraction)

Which solubility (mole fraction) value is on record for CN/C(=C\[N+](=O)[O-])NCCSCc1csc(CN(C)C)n1 ?
0.0257

###

conditions: in acetone, 278.15 K
Metric name: solubility (mole fraction)
Respond with the number and no other words.

Which solubility (mole fraction) value is on record for CN/C(=C\[N+](=O)[O-])NCCSCc1csc(CN(C)C)n1 ?
0.0034

###

details: in water, 273.15 K
Metric name: solubility (mole fraction)
Respond with the number and no other words.

Which solubility (mole fraction) value is on record for CN/C(=C\[N+](=O)[O-])NCCSCc1csc(CN(C)C)n1 ?
0.0225

###

settings: in water, 298.15 K
Metric name: solubility (mole fraction)
Respond with the number and no other words.

Which solubility (mole fraction) value is on record for CN/C(=C\[N+](=O)[O-])NCCSCc1csc(CN(C)C)n1 ?
0.0297

###

details: in water, 308.15 K
Metric name: solubility (mole fraction)
Respond with the number and no other words.

Which solubility (mole fraction) value is on record for CN/C(=C\[N+](=O)[O-])NCCSCc1csc(CN(C)C)n1 ?
0.036

###

conditions: in ethanol, 303.15 K
Metric name: solubility (mole fraction)
Respond with the number and no other words.

Which solubility (mole fraction) value is on record for CN/C(=C\[N+](=O)[O-])NCCSCc1csc(CN(C)C)n1 ?
0.0167

###

conditions: in ethyl acetate, 278.15 K
Metric name: solubility (mole fraction)
Respond with the number and no other words.

Which solubility (mole fraction) value is on record for CN/C(=C\[N+](=O)[O-])NCCSCc1csc(CN(C)C)n1 ?
0.00033

###

details: in ethyl acetate, 328.15 K
Metric name: solubility (mole fraction)
Respond with the number and no other words.

Which solubility (mole fraction) value is on record for CN/C(=C\[N+](=O)[O-])NCCSCc1csc(CN(C)C)n1 ?
0.00343

###

conditions: in water, 318.15 K
Metric name: solubility (mole fraction)
Respond with the number and no other words.

Which solubility (mole fraction) value is on record for CN/C(=C\[N+](=O)[O-])NCCSCc1csc(CN(C)C)n1 ?
0.0463

###

conditions: in ethanol, 293.15 K
Metric name: solubility (mole fraction)
Respond with the number and no other words.

Which solubility (mole fraction) value is on record for CN/C(=C\[N+](=O)[O-])NCCSCc1csc(CN(C)C)n1 ?
0.00867

###

conditions: in ethanol, 308.15 K
Metric name: solubility (mole fraction)
Respond with the number and no other words.

Which solubility (mole fraction) value is on record for CN/C(=C\[N+](=O)[O-])NCCSCc1csc(CN(C)C)n1 ?
0.0212

###

conditions: in acetone, 303.15 K
Metric name: solubility (mole fraction)
Respond with the number and no other words.

Which solubility (mole fraction) value is on record for CN/C(=C\[N+](=O)[O-])NCCSCc1csc(CN(C)C)n1 ?
0.0103

###

conditions: in methanol, 278.15 K
Metric name: solubility (mole fraction)
Respond with the number and no other words.

Which solubility (mole fraction) value is on record for CN/C(=C\[N+](=O)[O-])NCCSCc1csc(CN(C)C)n1 ?
0.0211

###

details: in methanol, 318.15 K
Metric name: solubility (mole fraction)
Respond with the number and no other words.

Which solubility (mole fraction) value is on record for CN/C(=C\[N+](=O)[O-])NCCSCc1csc(CN(C)C)n1 ?
0.203

###

conditions: in water, 343.15 K
Metric name: solubility (mole fraction)
Respond with the number and no other words.

Which solubility (mole fraction) value is on record for CN/C(=C\[N+](=O)[O-])NCCSCc1csc(CN(C)C)n1 ?
0.164

###

conditions: in ethanol, 288.15 K
Metric name: solubility (mole fraction)
Respond with the number and no other words.

Which solubility (mole fraction) value is on record for CN/C(=C\[N+](=O)[O-])NCCSCc1csc(CN(C)C)n1 ?
0.00653

###

conditions: in ethyl acetate, 273.15 K
Metric name: solubility (mole fraction)
Respond with the number and no other words.

Which solubility (mole fraction) value is on record for CN/C(=C\[N+](=O)[O-])NCCSCc1csc(CN(C)C)n1 ?
0.00029

###

details: in ethyl acetate, 318.15 K
Metric name: solubility (mole fraction)
Respond with the number and no other words.

Which solubility (mole fraction) value is on record for CN/C(=C\[N+](=O)[O-])NCCSCc1csc(CN(C)C)n1 ?
0.00219

###

settings: in acetone, 273.15 K
Metric name: solubility (mole fraction)
Respond with the number and no other words.

Which solubility (mole fraction) value is on record for CN/C(=C\[N+](=O)[O-])NCCSCc1csc(CN(C)C)n1 ?
0.00283

###

conditions: in acetone, 308.15 K
Metric name: solubility (mole fraction)
Respond with the number and no other words.

Which solubility (mole fraction) value is on record for CN/C(=C\[N+](=O)[O-])NCCSCc1csc(CN(C)C)n1 ?
0.0128

###

conditions: in ethyl acetate, 298.15 K
Metric name: solubility (mole fraction)
Respond with the number and no other words.

Which solubility (mole fraction) value is on record for CN/C(=C\[N+](=O)[O-])NCCSCc1csc(CN(C)C)n1 ?
0.00082

###

conditions: in ethyl acetate, 288.15 K
Metric name: solubility (mole fraction)
Respond with the number and no other words.

Which solubility (mole fraction) value is on record for CN/C(=C\[N+](=O)[O-])NCCSCc1csc(CN(C)C)n1 ?
0.00058

###

conditions: in ethanol, 323.15 K
Metric name: solubility (mole fraction)

Which solubility (mole fraction) value is on record for CN/C(=C\[N+](=O)[O-])NCCSCc1csc(CN(C)C)n1 ?
0.062

###

conditions: in ethanol, 333.15 K
Metric name: solubility (mole fraction)
Respond with the number and no other words.

Which solubility (mole fraction) value is on record for CN/C(=C\[N+](=O)[O-])NCCSCc1csc(CN(C)C)n1 ?
0.179

###

conditions: in ethyl acetate, 338.15 K
Metric name: solubility (mole fraction)
Respond with the number and no other words.

Which solubility (mole fraction) value is on record for CN/C(=C\[N+](=O)[O-])NCCSCc1csc(CN(C)C)n1 ?
0.0055

###

settings: in ethanol, 283.15 K
Metric name: solubility (mole fraction)
Respond with the number and no other words.

Which solubility (mole fraction) value is on record for CN/C(=C\[N+](=O)[O-])NCCSCc1csc(CN(C)C)n1 ?
0.00487

###

conditions: in ethanol, 313.15 K
Metric name: solubility (mole fraction)
Respond with the number and no other words.

Which solubility (mole fraction) value is on record for CN/C(=C\[N+](=O)[O-])NCCSCc1csc(CN(C)C)n1 ?
0.0301

###

conditions: in acetone, 323.15 K
Metric name: solubility (mole fraction)
Respond with the number and no other words.

Which solubility (mole fraction) value is on record for CN/C(=C\[N+](=O)[O-])NCCSCc1csc(CN(C)C)n1 ?
0.0385

###

conditions: in ethyl acetate, 293.15 K
Metric name: solubility (mole fraction)
Respond with the number and no other words.

Which solubility (mole fraction) value is on record for CN/C(=C\[N+](=O)[O-])NCCSCc1csc(CN(C)C)n1 ?
0.00063

###

conditions: in acetone, 288.15 K
Metric name: solubility (mole fraction)
Respond with the number and no other words.

Which solubility (mole fraction) value is on record for CN/C(=C\[N+](=O)[O-])NCCSCc1csc(CN(C)C)n1 ?
0.00552
